# Subject Of Test: T1, human IL-23 (IL-23-His-Biotin) (human, UniProt Q9NPF7 20-189; P29460 23-328, biotin label, site not stated)
# T1 construct: Akesobio lot 20161209; His-tagged and biotinylated
# T1 sequence (looked up) 1: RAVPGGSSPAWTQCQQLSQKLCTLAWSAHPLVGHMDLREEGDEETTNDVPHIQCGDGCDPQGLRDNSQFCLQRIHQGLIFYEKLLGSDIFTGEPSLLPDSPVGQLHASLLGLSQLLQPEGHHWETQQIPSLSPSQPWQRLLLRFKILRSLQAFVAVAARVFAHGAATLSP
# T1 sequence (looked up) 2: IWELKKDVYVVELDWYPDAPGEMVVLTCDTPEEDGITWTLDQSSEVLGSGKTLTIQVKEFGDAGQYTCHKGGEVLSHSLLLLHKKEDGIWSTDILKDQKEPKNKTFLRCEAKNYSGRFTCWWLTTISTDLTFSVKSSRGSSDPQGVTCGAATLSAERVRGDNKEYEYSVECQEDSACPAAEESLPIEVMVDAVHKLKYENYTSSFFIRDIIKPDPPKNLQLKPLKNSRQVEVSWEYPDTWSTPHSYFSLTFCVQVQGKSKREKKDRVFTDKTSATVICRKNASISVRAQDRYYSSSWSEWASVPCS
# Experimental Protocol: FACS competition, IL-23-His-Biotin 2 µg/mL on 293T-IL-12Rβ1&IL-23R cells; antibody 0.01 µg/mL
Quantity Name: MFI (MFI)
Provide the reading as a plain figure in MFI.

Solved entries:
Binder | MFI, MFI
H5L10 (antibody, human IgG1, kappa, V domains shown, human IgG1 / kappa constant regions; also called humanized antibody H5L10) VH: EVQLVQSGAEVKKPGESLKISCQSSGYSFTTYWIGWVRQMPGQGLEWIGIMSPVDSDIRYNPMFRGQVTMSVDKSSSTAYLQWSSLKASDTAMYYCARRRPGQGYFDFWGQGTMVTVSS VL: EIVLTQSPATLSASPGERATISCRASQSVGSWLAWYQQKPGQAPRSLIYAASNLQSGIPARFSGSGSGTDFTLTISSLEPEDFAVYYCQQYNIYPYTFGQGTRLEIKR | 223
H5L9 (antibody, human IgG1, kappa, V domains shown, human IgG1 (P01857) / kappa (P01834) constant regions; also called humanized antibody H5L9) VH: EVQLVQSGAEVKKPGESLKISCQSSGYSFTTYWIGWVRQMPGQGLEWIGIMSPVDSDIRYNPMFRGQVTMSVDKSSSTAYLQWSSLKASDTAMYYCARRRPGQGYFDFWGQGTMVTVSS VL: DIQMTQSPSSLSASVGDRVTITCKASQNVGSWLAWYQQKPGKAPKSLIYSASSRQSGVPSRFSGSGSGTDFTLTISSLQPEDFATYYCQQYDIYPFTFGQGTKLEIKR | 222
ustekinumab (antibody, V domains shown) VH: EVQLVQSGAEVKKPGESLKISCKGSGYSFTTYWLGWVRQMPGKGLDWIGIMSPVDSDIRYSPSFQGQVTMSVDKSITTAYLQWNSLKASDTAMYYCARRRPGQGYFDFWGQGTLVTVSS VL: DIQMTQSPSSLSASVGDRVTITCRASQGISSWLAWYQQKPEKAPKSLIYAASSLQSGVPSRFSGSGSGTDFTLTISSLQPEDFATYYCQQYNIYPYTFGQGTKLEIK | 219

**Q:** What value of measured MFI is listed for H5L11 (antibody, human IgG1, kappa, V domains shown, human IgG1 / kappa constant regions; also called humanized antibody H5L11) VH: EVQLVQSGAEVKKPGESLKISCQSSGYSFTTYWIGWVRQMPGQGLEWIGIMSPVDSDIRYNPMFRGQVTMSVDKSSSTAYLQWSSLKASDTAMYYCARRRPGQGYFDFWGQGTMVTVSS VL: EIVLTQSPATLSASPGERATISCRASQSVSSWLAWYQQKPGQAPRSLIYSASNLQSGIPARFSGSGSGTDFTLTISSLEPEDFAVYYCQQYNIYPYTFGQGTRLEIKR ?
**A:** 219
